# Test Summary: M. tuberculosis growth inhibition, dose response, 7H9 medium, purified and synthesized samples, set 9 (AID 602435)
# Test Settings: Mycobacterium tuberculosis H37Rv growth, 7H9 medium; at 100 µM (top of the series)
Records with an inconclusive call do not appear.
Measured Quantity: growth inhibition (%)
Numbers only here, please. The scale is %.

Query (molecule): `COc1ccc(N2CCN(C(=O)c3ccc(CNC(=O)NCc4ccc(Cl)cc4)cc3)CC2)cc1` ; field requested: growth inhibition
3.4

Fill in: growth inhibition of `O=C(CSc1nc2c(c(=O)[nH]1)CN(Cc1ccccc1)CC2)NC1CCCCC1` is ___
-0.3

So what's the measured growth inhibition for this one? `COCCNC(=O)CSc1nc2ccccc2c(=O)[nH]1`
-5.73

I'd like to know its growth inhibition. The molecule in question is COC(=O)C(Cc1ccccc1)NC(=O)CSc1nc2ccccc2c(=O)[nH]1 (stereo unspecified)
4.82

What value of measured growth inhibition is listed for `CCOc1ccc(NC(=O)c2ccc(CNc3c(N4CCCC4)c(=O)c3=O)cc2)cc1` ?
-10

Which growth inhibition value is on record for `O=C(NCc1ccc(C(=O)N2CCN(c3ccccc3)CC2)cc1)NC1CCCCC1` ?
2.95

----------
For each entry below, report its IC50 value.
# Tested on: Mycobacterium tuberculosis H37Rv growth, 7H9 medium
# Test Summary: M. tuberculosis growth inhibition, dose response, 7H9 medium, purified and synthesized samples, set 9 (AID 602435)
# Test Settings: measured here: IC50 growth inhibition replicates
Records with an inconclusive call do not appear.
Give the value in µM but do not write µM after it.

Lab note: need IC50 for `CC1CCN(C(=O)c2ccc(CNc3c(N4CCCC4)c(=O)c3=O)cc2)CC1` on Mycobacterium tuberculosis H37Rv growth, 7H9 medium, anyone have it?
8.48

Tell me reported IC50 for CCC(C)NC(=O)CSc1nc2ccccc2c(=O)[nH]1 (stereo not drawn) , tested with Mycobacterium tuberculosis H37Rv growth, 7H9 medium.
15.7

Return IC50 measured with Mycobacterium tuberculosis H37Rv growth, 7H9 medium given this molecule: O=C(NCCc1ccc(Cl)cc1)C1CCC(CNc2c(N3CCCCC3)c(=O)c2=O)CC1 (stereo not drawn)
37.1

# query: IC50 | item `O=C(c1ccc(CNc2c(N3CCOCC3)c(=O)c2=O)cc1)N1CCC(c2ccccc2)CC1` | system: Mycobacterium tuberculosis H37Rv growth, 7H9 medium
3.43

Record `O=C(CSc1nc2c(c(=O)[nH]1)CCC2)NC1CCCCC1` : what is its IC50 with Mycobacterium tuberculosis H37Rv growth, 7H9 medium?
2.97

I'm curious: which IC50 was measured for `O=C(c1ccc(CNc2c(N3CCCC3)c(=O)c2=O)cc1)N1CCN(c2ccccc2)CC1` tested on Mycobacterium tuberculosis H37Rv growth, 7H9 medium?
62.3

Give IC50 (Mycobacterium tuberculosis H37Rv growth, 7H9 medium) of the following molecule: `O=C(CSc1nc2ccccc2c(=O)[nH]1)NC1CCCCC1`
0.195

Please state recorded IC50 (tested on Mycobacterium tuberculosis H37Rv growth, 7H9 medium) of O=C(C1CCC(CNc2c(N3CCCCC3)c(=O)c2=O)CC1)N1CCCCC1 (stereo not drawn)
25.2

----------
Assignment: determine reported pIC50 for the given compounds.
# Tested on: Mycobacterium tuberculosis H37Rv growth, 7H9 medium
# Test Summary: M. tuberculosis growth inhibition, dose response, 7H9 medium, purified and synthesized samples, set 9 (AID 602435)
# Test Settings: measured here: IC50 growth inhibition replicates
Results filed as inconclusive are left out.
API: returns pIC50 as number; meaning -log10 of concentration in mol/L.

Please give the measured pIC50 for this compound: CC1CC(C)CN(C(=O)c2ccc(CNc3c(N4CCCC4)c(=O)c3=O)cc2)C1 (configuration not stated)
5.05

What value of measured pIC50 is listed for `O=C(c1ccc(CNc2c(N3CCOCC3)c(=O)c2=O)cc1)N1CCN(c2ccccc2)CC1` ?
5.46

I'd like to know its pIC50. The compound in question is `CC(C)OC(=O)CSc1ncnc2c1cnn2-c1ccccc1`
4.54

For CC1CCCN(C(=O)c2ccc(CNc3c(N4CCCCC4)c(=O)c3=O)cc2)C1 (configuration not stated) , what is its reported pIC50?
5.43

Recorded pIC50 of `CC(C)CCNC(=O)CSc1nc2ccccc2c(=O)[nH]1` , please.
6.16

Record request: pIC50 value, item `O=C(CSc1nc2ccccc2c(=O)[nH]1)NC1CCOCC1`
4.64

// lookup pIC50 for `COC(=O)CSc1ncnc2c1cnn2-c1ccc(C)cc1C`
5.59
